system_name: HA-VP16-TraR fusion (TraR from Agrobacterium strain A348 fused to VP16 activation domain; pMON53030) (UniProt P06492+P33905)
Construct: PCR fragments containing open reading frames are cloned into an expression construct; expressed in transfected cells; host or cells: carrot protoplasts from cell suspension culture, transient transfection
experiment_description: Transient GUS reporter assay in transfected carrot protoplasts with VP16-TraR effector
Format: cell-based, Agrobacterium tumefaciens
Parameters: unit not given here
measurement_context: 12.5 µM of the AHL or analog; reporter TraA8(4X)-GUS + 35S-VP16-TraR
measured_endpoint: GUS activity, average (+ inducer)
Please give the numeric answer without any surrounding text.

Guide cases for GUS activity, average (+ inducer), answers given:
CCCCCCC(C(C)=O)C(=O)N[C@@H](CCO)C(=O)O (some centres unmarked) [compound 26]
1812.5
CCCCCC(=O)C(C)(C)C(=O)N[C@@H](CCO)C(=O)O [compound 16]
509.8
CCCCCC(=O)C(CCCC)C(=O)N[C@@H](CCO)C(=O)O (some centres unmarked) [compound 25]
284.7
CCCCCC(=O)C(CC)C(=O)N[C@@H](CCO)C(=O)O (some centres unmarked) [compound 19]
5377.3

Here is the next item to consider.
Data request, read-out GUS activity, average (+ inducer), for CCCCCC(=O)C(C)C(=O)N[C@@H](CCO)C(=O)O (some centres unmarked) [compound 7] 2746.0
